measurement target: CYP17A1 (Homo sapiens, UniProt P05093)
Construct: endogenous in cells; host or cells: H295R
experimental details: H295R cell assay, CYP17A1 hydroxylase and lyase activity
Format: cell-based
test conditions: based on conversion of 17-OH-PRE into DHEA; 48 hours; mean over 6 to 15 measurements ± standard error; read-out: IC50 lyase, H295R system
Parameter: pIC50. Scope: all listed entries.
Value format note: pIC50 is -log10 of concentration (mol/L); just state the number.

1) CCCn1nnc2cc(-c3cc(-c4ccncc4)c(C#N)c(N)n3)ccc21	8.13

Query molecule follows.
**Query** Find pIC50 for Cc1ccc(-c2csc(-c3cccnc3)n2)c(C)c1 on CYP17A1 (Homo sapiens, UniProt P05093) and write it down.
**Result** 7.03

* * *

Tested on: H295R cell line
experimental details: H295R steroid hormone synthesis assay, production of steroidal hormones
Assay type: cell-based, human
test conditions: Homo sapiens, NCI-H295R, H295R cells; read-out: IC50 values for progestagens and corticosteroids (range)
Method: The H295R steroid hormone synthesis assay was performed according to the OECD validation guideline. Cells were cultured in DMEM/F12 media supplemented with 1% ITS-premix and 2.5% Nu-serum at 37 °C with a 5% CO2 atmosphere. The cells were only used for experiments between passage […]. During exposure experiments, cells were grown in 24 well plates with a density of 3 × 10^5 cells/mL. […]
pIC50: −log10 of the molar value.
property: pIC50

**Query** Recall and state the measured pIC50 for Cc1ccc(-c2csc(-c3cccnc3)n2)c(C)c1 .
**Result** 5.92 to 6.52

* * *

// Kd lookup, one value per entry
measurement target: human CYP17A1 (Homo sapiens, UniProt P05093)
Construct: bearing a truncation of the N-terminal helix; made in house
Sequence (P05093 with tags, fused parts or gaps limits assumed): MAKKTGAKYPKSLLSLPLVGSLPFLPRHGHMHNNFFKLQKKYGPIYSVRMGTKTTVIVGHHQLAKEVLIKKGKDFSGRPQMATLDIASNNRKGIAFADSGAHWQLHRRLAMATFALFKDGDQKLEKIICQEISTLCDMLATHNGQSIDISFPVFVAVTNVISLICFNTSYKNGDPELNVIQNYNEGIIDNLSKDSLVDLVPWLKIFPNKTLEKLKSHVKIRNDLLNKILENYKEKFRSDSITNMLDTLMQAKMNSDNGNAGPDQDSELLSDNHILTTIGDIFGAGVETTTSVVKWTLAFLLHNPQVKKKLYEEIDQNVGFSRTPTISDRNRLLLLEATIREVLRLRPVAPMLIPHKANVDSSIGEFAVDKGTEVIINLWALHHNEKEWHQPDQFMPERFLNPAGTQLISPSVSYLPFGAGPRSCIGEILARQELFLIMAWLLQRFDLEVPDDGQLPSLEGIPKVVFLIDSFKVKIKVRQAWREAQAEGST
experimental details: UV-VIS ligand binding assay (spectral titration) with purified CYP17A1
test conditions: 100 nM purified CYP17A1, mean over 2 measurements ± standard error

Worked cases, answers included:
1) CCCn1nnc2cc(-c3cc(-c4ccncc4)c(C#N)c(N)n3)ccc21 [Compound 2]	< 100 nM
2) C[C@]12CC[C@H](O)CC1=CC[C@@H]1[C@@H]2CC[C@]2(C)C(c3cccnc3)=CC[C@@H]12 [abiraterone, reference compound]	< 100 nM

**Query** Determine its reported Kd: Cc1ccc(-c2csc(-c3cccnc3)n2)c(C)c1 [Compound 1]
**Result** < 100 nM

* * *

Test system: H295R cell line
experimental details: H295R steroid hormone synthesis assay, production of steroidal hormones
Format: cell-based, human
test conditions: Homo sapiens, NCI-H295R, H295R, estrogens; read-out: E-E2 IC50
Protocol: The H295R steroid hormone synthesis assay was performed according to the OECD validation guideline. Cells were cultured in DMEM/F12 media supplemented with 1% ITS-premix and 2.5% Nu-serum at 37 °C with a 5% CO2 atmosphere. The cells were only used for experiments between passage […]. During exposure experiments, cells were grown in 24 well plates with a density of 3 × 10^5 cells/mL. […]
property: IC50

1. CCCn1nnc2cc(-c3cc(-c4ccncc4)c(C#N)c(N)n3)ccc21	50 nM

**Query** State its IC50: C[C@]12CC[C@H](O)CC1=CC[C@@H]1[C@@H]2CC[C@]2(C)C(c3cccnc3)=CC[C@@H]12 [abiraterone, reference compound]
**Result** 408 nM

**Query** Please list IC50 recorded for the compound Cc1ccc(-c2csc(-c3cccnc3)n2)c(C)c1
**Result** 235 nM

* * *

System: H295R cell line
experimental details: H295R steroid hormone synthesis assay, production of steroidal hormones
Type: cell-based, human
test conditions: Homo sapiens, NCI-H295R, H295R, corticosteroids; read-out: COS IC50
property: pIC50
Convention used: pIC50 is expressed as -log10 of the molar concentration.

**Query** Write down pIC50 measured for item CCCn1nnc2cc(-c3cc(-c4ccncc4)c(C#N)c(N)n3)ccc21
**Result** 7.44
